All values here come from the supplement of paper PMC10567573.

B1: MATN2 (parent)
chain: TDDSYSCHCLKGFTLNPDKKTCRR

variants of: B1; assay: protein stability index of a GFP-peptide fusion (GPS, HEK-293T) (PSI 1-6); higher = more stable; settings: c terminus: a fixed tail appended;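 note: lentivirally expressed fusions sorted by FACS into six bins by GFP to DsRed ratio, PSI derived from sequencing read proportions per bin multiplied by bin number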
Provide the reported protein stability index of each item.
Answers are plain numbers.

// known answers, use as guide
SEQ	protein stability index
TADSYSCHCLKGFTLNPDKKTCRR [D2A]	1.88
TDDSWSCHCLKGFTLNPDKKTCRR [Y5W]	2.23
TDDSLSCHCLKGFTLNPDKKTCRR [Y5L]	3.53
TDDSYSCHCGKGFTLNPDKKTCRR [L10G]	2.91
TDDSKSCHCLKGFTLNPDKKTCRR [Y5K]	2.65
TDDSYSCHCLYGFTLNPDKKTCRR [K11Y]	2.4
TDDSYSCHCLTGFTLNPDKKTCRR [K11T]	1.96
TDDSYSCHCLKGFTKNPDKKTCRR [L15K]	2.64
TDDSYSCHCLCGFTLNPDKKTCRR [K11C]	2.51
TDDLYSCHCLKGFTLNPDKKTCRR [S4L]	1.84

Please report protein stability index for every entry that follows.
1. TDDQYSCHCLKGFTLNPDKKTCRR [S4Q]
2. TDASYSCHCLKGFTLNPDKKTCRR [D3A]
3. TDDSYSCWCLKGFTLNPDKKTCRR [H8W]
4. TDDMYSCHCLKGFTLNPDKKTCRR [S4M]

2.3
2.24
2.63
2.22
